Biological target: NADPH oxidase 2 (Homo sapiens)
Assay: NOX2-dependent H2O2 signal modulators, primary screen, NOX inhibitor project, cell-based, HEK293-NOX2, PMA-stimulated, Amplex Red fluorescence (AID 1159); further: test concentration not given here
Settings: 45 min, higher = more signal, called active from +8 up or from −8 down
The source made the active and inactive calls.
# z-score values compiled below

- [N-]=[N+]=Nc1ccccc1[C@@H]1OC(c2ccc(OCCCO)cc2)=N[C@]1(CCS(=O)(=O)c1ccccc1)C(=O)N1CCOCC1: -1.54 (inactive)
- [N-]=[N+]=NCc1ccccc1C[C@@]1(C(=O)N2CCOCC2)N=C(c2ccc(OCCCO)cc2)O[C@@H]1c1ccccc1CN=[N+]=[N-]: -1 (inactive)
- Cc1cc(C)c(C(O)C2C=CC3C(=O)N(C)C(=O)C3N2Nc2ccccc2)c(C)c1 (configuration not stated): -0.802 (inactive)
- CC(C)NC(=O)[C@@H]1c2ccccc2C(=O)N(Cc2ccccc2Cl)[C@H]1c1ccc(CO)cc1: -0.444 (inactive)
- C=C[C@H](COC(C)=O)N(Cc1ccc(OC(C)=O)c(OC)c1)S(=O)(=O)c1ccc(Br)cc1: -4.68 (inactive)

Let me know recorded z-score for `COCCOC(=O)N1C(=O)[C@@]2(c3cc(C#CCNC(N)=O)ccc31)[C@H](C(=O)N1CCN(c3ncccn3)CC1)[C@H]1C(=O)O[C@H](c3ccccc3)[C@H](c3ccccc3)N1[C@@H]2c1ccccc1OCCO` , thanks. 1.99 (inactive)

Report z-score, nothing else, for this compound: `COc1ccc(CCN2C(=O)[C@@]3(Cc4ccccc42)c2ccccc2C(=O)N(Cc2ccccc2Cl)[C@H]3c2ccc(CO)cc2)cc1` 1.3 (inactive)

---

Target: Fibroblast growth factor 10 (Homo sapiens) (UniProt O15520)
Sequence (O15520 whole entry, looked up): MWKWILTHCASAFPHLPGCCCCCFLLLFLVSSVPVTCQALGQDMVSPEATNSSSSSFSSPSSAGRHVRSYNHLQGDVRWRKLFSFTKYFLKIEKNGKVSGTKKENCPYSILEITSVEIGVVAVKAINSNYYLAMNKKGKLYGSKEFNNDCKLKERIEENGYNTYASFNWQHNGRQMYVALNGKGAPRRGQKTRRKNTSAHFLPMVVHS
Experiment: FGF10 binders on small-molecule microarrays, primary screen, biochemical, small-molecule microarray, 635 nm fluorescence (AID 1102)
Conditions: FGF10 binding, fluorescence 635 nm, higher = more signal
EXPERIMENTAL ENDPOINT: composite z-score
Just the number, please.

Example compounds with recorded composite z-score:
* O=C(CCN1CCOCC1)c1cccc(O)c1 | 1.37
* COC(=O)[C@@]1(Cc2ccccc2)[C@H]2c3cc(C(=O)N4CCCC4)n(C)c3C[C@H]2CN1C(=O)c1ccccc1 | -0.175
* COc1ccc(CCNC(=O)[C@@H]2c3ccccc3C(=O)N(Cc3ccc(OC(F)(F)F)cc3)[C@H]2c2ccc(CO)cc2)cc1 | 0.719

Turning to the following compound.
State its composite z-score for this compound: `COC(=O)C[C@@H]1C[C@H](C)[C@]2(O1)C(=O)N(Cc1ccccc1)c1ccc(NC(C)=O)cc12` 0.603

---

Assay: Plasmodium falciparum growth inhibition, primary screen, strain 3D7, DAPI fluorescence, 100 nL (AID 1184);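 further: parasites grown inside human red blood cells in medium with human serum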
Conditions: P. falciparum 3D7 growth, 3 d, higher = more signal
Tag: T if measured z-score is not below -0.8, F if it is.

Solved entries (count: 6):
• CC(C)CNC(=O)[C@@]1(c2ccc([N+](=O)[O-])cc2)CC(=O)N(CC23CC4CC(CC(C4)C2)C3)[C@@H]1c1ccc(CO)cc1 = T
• CC(C)(C)OC(=O)CC[C@@]1(C(=O)O)N=C(c2ccc(OCCCO)cc2)O[C@@H]1c1ccccc1N=[N+]=[N-] = T
• O=C1OCC=C[C@H]2OC34C=CCN(c5ccc6ccccc6c5)C(=O)[C@H]3N(CCCO)C(=O)[C@@H]4[C@@H]12 (stereo partly specified) = F
• CC(=O)C1=CCC(c2ccccc2)N(S(=O)(=O)c2ccc(C)cc2)C1 (stereo unspecified) = F
• CCCCCN1CC=CC23O[C@@H]4C=CCOC(=O)[C@@H]4[C@H]2C(=O)N(CCCO)[C@@H]3C1=O (stereo partly specified) = F
• CS(=O)(=O)CCOC(=O)C1=CC(c2ccc(CO)cc2)=CC(C2CC2)N(Cc2cc3c(cc2Br)OCO3)C=C1C(=O)OCCS(C)(=O)=O (stereo unspecified) = F

Textbook exercise: given the entry `C=CC(=C)C1=CCO[C@@H]1[C@H]1CCCN1S(=O)(=O)c1ccccc1[N+](=O)[O-]` , state whether its z-score is greater than or equal to -0.8. F

Please tell me: is the compound `COCCOC(=O)N1C(=O)[C@@]2(c3cc(C#CC4(O)CCCCCC4)ccc31)[C@H](C(=O)N1CCCCCCC1)[C@H]1C(=O)O[C@H](c3ccccc3)[C@H](c3ccccc3)N1[C@@H]2c1ccccc1OCCO` at or over -0.8 in terms of z-score? F

Please indicate if the recorded z-score for `O=C1N(CCS(=O)(=O)c2ccccc2)Cc2ccccc2[C@H]2OC(c3ccc(OCCCO)cc3)=N[C@@]12CCS(=O)(=O)c1ccccc1` meets or exceeds -0.8. F

// inclusive: z-score at least -0.8? input: CN1C(=O)C2C(C1=O)C1C=C(CCCO)C2C(c2cccs2)N1C (stereo unspecified) T

Threshold query (z-score >= -0.8) on CC(C)=CCCC(C)=CC(O)C1C=CC2C(=O)N(c3ccccc3)C(=O)C2N1Nc1ccccc1 (stereo unspecified) T

Test whether the compound Cc1ccccc1C(O)C1C=CC2C(=O)N(C)C(=O)C2N1N1CCCCC1 (stereo unspecified) records z-score of -0.8 or higher. T

Kindly determine if z-score recorded for `C=C(COC)/C(=C/C[C@H](OC(=O)c1ccncc1)c1cccc(OCCO)c1)c1cc(C(=O)OC)ccc1OC` is above or exactly -0.8. F

This collection of values is drawn from PubChem BioAssay.
